Target: human α1a adrenergic receptor (Homo sapiens, UniProt P35348)
Construct: The entire coding region of α1a (1401 bp); expressed in transfected cells
Sequence (P35348 1-466): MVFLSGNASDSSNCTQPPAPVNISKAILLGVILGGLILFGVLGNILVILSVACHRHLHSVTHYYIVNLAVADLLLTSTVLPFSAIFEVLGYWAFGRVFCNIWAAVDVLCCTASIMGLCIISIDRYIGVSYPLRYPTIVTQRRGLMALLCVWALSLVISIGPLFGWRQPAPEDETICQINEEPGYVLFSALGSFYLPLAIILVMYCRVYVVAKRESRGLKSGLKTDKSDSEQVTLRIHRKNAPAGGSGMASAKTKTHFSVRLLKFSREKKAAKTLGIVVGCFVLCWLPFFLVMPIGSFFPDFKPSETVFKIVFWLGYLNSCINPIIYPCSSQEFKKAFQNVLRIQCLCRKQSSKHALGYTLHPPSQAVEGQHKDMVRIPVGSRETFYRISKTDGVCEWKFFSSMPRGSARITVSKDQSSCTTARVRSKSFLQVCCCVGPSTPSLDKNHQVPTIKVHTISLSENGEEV
Assay: Radioligand binding ([3H]prazosin) at cloned human α1a adrenergic receptor
Settings: LM(tk-) cell membranes, read-out: Binding affinities (pKi) α1a (converted)
Protocol: First, conditions were determined which allowed measurement of the specific binding of a compound known to bind to the receptor. Then, the binding of the known compound to the receptor in membrane preparations was evaluated in the presence of several different concentrations of the test compound. These cell lines were prepared by transfecting the cloned cDNA or cloned genomic DNA or constructs containing both genomic DNA and cDNA encoding the human receptors as described below. […]
READOUT: Ki (nM)

[
  {
    "COMPOUND": "O=C1CC2(CCCC2)CC(=O)N1CCN1CCN(c2c(F)cccc2F)CC1 [Compound 14]",
    "TARGET OR SYSTEM": "human α1a adrenergic receptor (Homo sapiens, UniProt P35348)",
    "READING": 3160
  },
  {
    "COMPOUND": "Cc1ccc(Cl)cc1N1CCN(CCN2C(=O)CC3(CCCC3)CC2=O)CC1 [Compound 13]",
    "TARGET OR SYSTEM": "human α1a adrenergic receptor (Homo sapiens, UniProt P35348)",
    "READING": 7940
  }
]

1. O=C1CC2(CCCC2)CC(=O)N1CCN1CCN(c2ccccc2F)CC1 [Compound 20]
2. COc1ccc(F)cc1C1CCN(CCN2C(=O)CC3(CCCC3)CC2=O)CC1 [Compound 12]
Just curious, which one has the larger Ki reading, 1 or 2 ? I would appreciate it if you answered with the label of your choice.
1
